Biological target: T1, synthetic (altered PPI ligand RQW) peptide on HLA-A*02:01 (human)
T1 peptide: RQWGPDPAAV
Experiment: data from [20]; method not given; soluble, other
OBSERVABLE: pKd
Recall that pKd is obtained by taking minus log10 of the concentration measured in molar.

Input line: Return reported pKd. Input binder: 1E6 (TCR) alpha TRAV12-3*01 CDR3: AMRGDSSYKLI beta TRBV12-4*01 CDR3: ASSLWEKLAKNIQY
Output line: 5.11
